Assign Weight change rate, Day 18 to each entry below.
- recorded_conditions: Day 18; G10-G16 groups; single IP 400 mg/kg; Mean±SEM
The response must be a number in % with no trailing unit.

**Query** Any idea what Weight change rate, Day 18 was measured for CCCCOC(=O)Nc1nc(=O)n([C@@H]2O[C@H](COC(=O)Cn3cnc([N+](=O)[O-])c3)C(O)C2(F)F)cc1I (stereo partly drawn) ?
**Result** 5.03

**Query** Reported Weight change rate, Day 18, compound O=C(COc1nc(Cl)c(Cl)cc1Cl)OCC1OC(n2cc(-c3cn(Cc4ccccc4)nn3)c(NC(=O)OCc3ccc([N+](=O)[O-])cc3)nc2=O)C(F)(F)C1O (stereo not drawn) : ____
**Result** 4.84

**Query** Return reported Weight change rate, Day 18; argument: CCCCOC(=O)Nc1nc(=O)n(C2OC(COC(=O)COc3nc(Cl)c(Cl)cc3Cl)C(O)C2(F)F)cc1-c1cn(Cc2ccccc2)nn1 (stereo not drawn)
**Result** 13.18

**Query** Look up Weight change rate, Day 18 for this compound: O=C(COc1nc(Cl)c(Cl)cc1Cl)OC[C@H]1O[C@@H](n2cc(Br)c(NC(=O)OCc3ccccc3)nc2=O)C(F)(F)C1O (stereo partly drawn)
**Result** −1.80

**Query** For the compound shown here, CCCCOC(=O)Nc1nc(=O)n(C2OC(COC(=O)COc3nc(Cl)c(Cl)cc3Cl)C(O)C2(F)F)cc1Br (stereo not drawn) , give the reported Weight change rate, Day 18.
**Result** 6.99

**Query** Using the record for CCCCOC(=O)Nc1nc(=O)n(C2OC(COC(=O)COc3nc(Cl)c(Cl)cc3Cl)C(O)C2(F)F)cc1I (stereo not drawn) , report its Weight change rate, Day 18.
**Result** 1.66

----------
- recorded_conditions: Day 9; G10-G16 groups; single IP 400 mg/kg; Mean±SEM
Please respond with reported Weight change rate, Day 9 for every item in the list.
Give just the numeric value; % need not be written.

**Query** Data request, read-out Weight change rate, Day 9, for CCCCOC(=O)Nc1nc(=O)n(C2OC(COC(=O)COc3nc(Cl)c(Cl)cc3Cl)C(O)C2(F)F)cc1-c1cn(Cc2ccccc2)nn1 (stereo not drawn)
**Result** 2.49

**Query** Value lookup for Weight change rate, Day 9; key = O=C(COc1nc(Cl)c(Cl)cc1Cl)OCC1OC(n2cc(-c3cn(Cc4ccccc4)nn3)c(NC(=O)OCc3ccc([N+](=O)[O-])cc3)nc2=O)C(F)(F)C1O (stereo not drawn)
**Result** 0.07

**Query** Could you tell me which Weight change rate, Day 9 is on file for CCCCOC(=O)Nc1nc(=O)n([C@@H]2O[C@H](COC(=O)Cn3cnc([N+](=O)[O-])c3)C(O)C2(F)F)cc1I (stereo partly drawn) ?
**Result** 2.11

**Query** Would you mind telling me what Weight change rate, Day 9 value was observed for CCCCOC(=O)Nc1nc(=O)n(C2OC(COC(=O)COc3nc(Cl)c(Cl)cc3Cl)C(O)C2(F)F)cc1I (stereo not drawn) ?
**Result** −0.18

**Query** Request the reported Weight change rate, Day 9 associated with CCCCOC(=O)Nc1nc(=O)n(C2OC(COC(=O)COc3nc(Cl)c(Cl)cc3Cl)C(O)C2(F)F)cc1Br (stereo not drawn)
**Result** 1.99

**Query** I have this compound here, O=C(COc1nc(Cl)c(Cl)cc1Cl)OC[C@H]1O[C@@H](n2cc(Br)c(NC(=O)OCc3ccccc3)nc2=O)C(F)(F)C1O (stereo partly drawn) , and I need its recorded Weight change rate, Day 9.
**Result** 3.04

These entries and their values trace back to patent US10174067B2.
